Values were extracted from patent US20080275058A1.

Give measured IC50 for each item. Keep answers brief.
target: hD2L (Homo sapiens); construct: purchased BioSignal Packard Inc., Montreal, Canada; experiment: Radioligand binding, dopamine D2 ([3H]spiperone); details: Table 4; [3H]spiperone 1 nM; read-out: Binding affinity, IC50 (nM) D2
Sequence (P14416 whole entry): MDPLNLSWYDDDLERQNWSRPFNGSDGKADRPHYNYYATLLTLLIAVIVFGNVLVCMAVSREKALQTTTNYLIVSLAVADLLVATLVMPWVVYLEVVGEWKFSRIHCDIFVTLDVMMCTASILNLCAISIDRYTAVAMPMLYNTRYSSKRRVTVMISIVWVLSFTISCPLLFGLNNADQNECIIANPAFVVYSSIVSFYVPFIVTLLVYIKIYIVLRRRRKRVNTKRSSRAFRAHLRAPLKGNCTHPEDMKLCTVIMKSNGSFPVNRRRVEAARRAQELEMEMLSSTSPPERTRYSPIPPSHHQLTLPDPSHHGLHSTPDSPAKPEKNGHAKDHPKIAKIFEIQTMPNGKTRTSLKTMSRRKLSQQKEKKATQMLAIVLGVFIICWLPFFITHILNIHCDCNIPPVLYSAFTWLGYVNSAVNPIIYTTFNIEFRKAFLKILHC

Query string: What measured IC50 goes with CN1CCN(c2cc(Cl)cc3c2C(=O)C(C)(c2ccc([N+](=O)[O-])cc2)C(=O)N3Cc2ccccc2)CC1 (stereo not drawn) ?
Result string: > 10000 nM

Query string: What measured IC50 goes with CN1CCN(c2cc(Cl)cc3c2C(=O)C(C)(c2ccc(O)cc2)C(=O)N3Cc2ccccc2)CC1 (stereo not drawn) ?
Result string: > 10000 nM

Query string: What measured IC50 goes with CC1(c2ccc(O)cc2)C(=O)c2c(N3CCNCC3)cc(Cl)cc2N(Cc2ccccc2)C1=O (racemic) ?
Result string: > 10000 nM
